measured-on: rat mGlu3 receptor (Rattus norvegicus (Rat))
Sequence (P31422 23-879): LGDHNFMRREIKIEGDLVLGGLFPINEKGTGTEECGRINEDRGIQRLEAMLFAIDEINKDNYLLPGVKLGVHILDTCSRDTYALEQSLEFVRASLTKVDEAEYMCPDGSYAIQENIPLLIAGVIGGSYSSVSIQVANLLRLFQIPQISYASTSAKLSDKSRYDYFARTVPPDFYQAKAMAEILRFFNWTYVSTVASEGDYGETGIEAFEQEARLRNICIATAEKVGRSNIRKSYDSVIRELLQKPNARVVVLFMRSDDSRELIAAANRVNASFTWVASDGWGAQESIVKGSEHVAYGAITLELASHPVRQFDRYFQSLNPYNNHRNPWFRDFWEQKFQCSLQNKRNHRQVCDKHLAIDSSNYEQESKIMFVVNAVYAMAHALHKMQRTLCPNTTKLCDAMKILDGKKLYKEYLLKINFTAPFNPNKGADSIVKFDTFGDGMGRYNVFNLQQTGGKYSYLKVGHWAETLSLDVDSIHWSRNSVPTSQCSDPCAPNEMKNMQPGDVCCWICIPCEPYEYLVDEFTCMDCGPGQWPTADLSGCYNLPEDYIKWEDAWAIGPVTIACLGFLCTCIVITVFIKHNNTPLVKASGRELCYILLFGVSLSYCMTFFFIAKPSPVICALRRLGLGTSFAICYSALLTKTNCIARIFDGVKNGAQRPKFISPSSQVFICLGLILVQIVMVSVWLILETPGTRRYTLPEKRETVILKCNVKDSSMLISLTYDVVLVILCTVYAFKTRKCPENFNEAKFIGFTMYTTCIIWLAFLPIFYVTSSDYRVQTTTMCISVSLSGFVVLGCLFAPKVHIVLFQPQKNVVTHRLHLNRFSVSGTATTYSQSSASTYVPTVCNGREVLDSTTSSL
protocol-notes: mGlu3 in vitro GIRK thallium flux assay
Type: cell-based
cond: NAM; 2.5 min compound incubation; EC80 glutamate; HEK-293 GIRK cells
Measured EC50, listed per entry.

In plain terms, O=C(O)c1cc(-c2cccc(-c3nc(-c4ccccc4)cc(C(F)(F)F)n3)c2)ccc1F [Example 86] has a documented EC50 of 0.92 µM

====

measured-on: rat mGlu2 receptor (Rattus norvegicus (Rat), UniProt P31421)
Sequence (P31421 19-872): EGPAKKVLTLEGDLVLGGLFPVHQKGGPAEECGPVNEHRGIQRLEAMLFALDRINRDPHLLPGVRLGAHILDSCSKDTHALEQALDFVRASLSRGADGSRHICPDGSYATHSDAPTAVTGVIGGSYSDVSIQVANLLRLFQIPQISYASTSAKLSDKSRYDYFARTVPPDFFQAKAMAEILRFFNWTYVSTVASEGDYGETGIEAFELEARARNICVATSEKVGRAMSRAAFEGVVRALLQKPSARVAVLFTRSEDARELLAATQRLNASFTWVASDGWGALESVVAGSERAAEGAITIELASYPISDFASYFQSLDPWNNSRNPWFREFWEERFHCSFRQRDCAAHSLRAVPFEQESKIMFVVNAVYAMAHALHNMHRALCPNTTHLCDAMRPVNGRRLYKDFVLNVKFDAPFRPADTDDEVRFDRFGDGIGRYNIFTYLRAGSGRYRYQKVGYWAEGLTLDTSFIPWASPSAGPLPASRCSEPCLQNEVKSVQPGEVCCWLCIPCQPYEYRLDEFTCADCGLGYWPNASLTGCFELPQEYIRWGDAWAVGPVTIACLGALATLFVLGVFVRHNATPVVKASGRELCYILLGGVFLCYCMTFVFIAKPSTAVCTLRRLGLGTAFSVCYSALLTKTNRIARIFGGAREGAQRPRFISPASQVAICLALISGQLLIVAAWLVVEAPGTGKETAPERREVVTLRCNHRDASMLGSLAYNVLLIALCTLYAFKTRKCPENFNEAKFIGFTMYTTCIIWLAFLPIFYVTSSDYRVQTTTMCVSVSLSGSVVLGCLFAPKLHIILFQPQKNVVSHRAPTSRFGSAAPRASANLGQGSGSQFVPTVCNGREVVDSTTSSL
protocol-notes: mGlu2 in vitro GIRK thallium flux assay
Format: cell-based
cond: read-out: mGlu2 EC50 (μM) (60 min); NAM; 60 min compound incubation; EC80 glutamate; HEK-293 GIRK cells
measured-parameter: EC50

Below: 3 molecules and their reported EC50.
O=C(O)c1cc(-c2cccc(-c3nc(-c4cccnc4)cc(C(F)(F)F)n3)c2)ccc1F
0.27 µM
O=C(O)c1ccc(-c2cccc(-c3nc(-c4ccc(C(F)(F)F)nc4)cc(C(F)(F)F)n3)c2)cc1Cl
> 10 µM
Fc1ccc(-c2cccc(-c3nc(-c4ccoc4)cc(C(F)(F)F)n3)c2)cc1-c1noc(=S)[nH]1
> 10 µM

The reported value for O=C(O)c1cc(-c2cccc(-c3nc(-c4ccccc4)cc(C(F)(F)F)n3)c2)ccc1F in terms of EC50 is 0.04 µM

Notebook: Cc1noc(C)c1-c1cc(C(F)(F)F)nc(-c2cccc(-c3ccc(F)c(C(=O)O)c3)c2)n1 , EC50 read as > 10 µM

The recorded EC50 for O=C(O)c1ccc(-c2cccc(-c3nc(-c4ccc(C(F)(F)F)nc4)cc(C(F)(F)F)n3)c2)cc1 is > 10 µM

Notebook: FC(F)(F)c1ccc(-c2cc(C(F)(F)F)nc(-c3cccc(-c4cccc(-c5nn[nH]n5)c4)c3)n2)cn1 , EC50 read as 0.43 µM

====

measured-on: rat mGlu3 receptor (Rattus norvegicus (Rat))
protocol-notes: mGlu3 in vitro GIRK thallium flux assay
Type: cell-based
cond: NAM; 2.5 min compound incubation; EC80 glutamate; HEK-293 GIRK cells
Reported values of EC50 for individual entries

Study these solved cases before continuing.
O=C(O)c1cc(-c2cccc(-c3nc(-c4cccnc4)cc(C(F)(F)F)n3)c2)ccc1F [Example 116]
8.58 µM
O=C(O)c1ccc(F)c(-c2cccc(-c3nsc(-c4ccccc4)n3)c2)c1 [Example 41]
> 10 µM
O=C(O)c1cccc(-c2cccc(-c3coc(-c4ccccc4)c3)c2)c1 [Example 46]
> 30 µM
CONC(=O)c1cc(-c2cccc(-c3nc(-c4ccoc4)cc(C(F)(F)F)n3)c2)ccc1F [Example 132]
5.26 µM

GET /value?item= O=C1CC(c2ccnc(Cl)c2)=Nc2ccc(-c3ccccc3F)cc2N1 [Example 187] &field=EC50 returns 0.71 µM

Field EC50 (entry O=C(O)c1cccc(-c2cccc(-c3csc(/C=C/c4ccccc4)n3)c2)c1 [Example 36] ) reads > 10 µM

// sample O=C(O)c1cccc(-c2cccc(-c3csc(-c4cccc5ccccc45)n3)c2)c1 [Example 30] , its EC50 was > 30 µM

Value of measured EC50 for the entry O=C(O)c1cc(-c2csc(-c3ccccc3)n2)ccc1F [Example 27] : > 30 µM

====

measured-on: rat mGlu2 receptor (Rattus norvegicus (Rat), UniProt P31421)
protocol-notes: mGlu2 in vitro GIRK thallium flux assay
Assay type: cell-based
cond: NAM; 2.5 min compound incubation; EC80 glutamate; HEK-293 GIRK cells; read-out: mGlu2 EC50 (μM) (2.5 min)
measured-parameter: EC50 (µM)
Please state the figure in µM; there is no need to write the unit.

Take a look at these entries with their results.
O=C(O)c1cc(-c2cccc(-c3csc(-c4ccoc4)n3)c2)ccc1F
2.26
O=C(O)c1cc(-c2cccc(-c3csc(-c4ccc(C(F)(F)F)nc4)n3)c2)ccc1F
1.35
O=C1CC(c2ccnc(Cl)c2)=Nc2ccc(-c3ccc(Cl)cc3)cc2N1
2.42

// recorded EC50 for O=C(O)c1ccc(F)c(-c2cccc(-c3nc(-c4ccoc4)cc(C(F)(F)F)n3)c2)c1 : 0.4

Consider O=C(O)c1ccc(F)c(-c2cccc(-c3csc(-c4ccccc4)n3)c2)c1 . Its measured EC50 is 1.59

Lab book: EC50 of N#Cc1cc(C2=Nc3ccc(I)cc3NC(=O)C2)ccn1 noted as 0.11

For this compound ( O=C(O)c1cc(F)cc(-c2cccc(-c3nc(-c4ccccc4)cc(C(F)(F)F)n3)c2)c1 ), measured EC50 is 1.44

Lookup result for Cc1cc2c(cc1C(F)(F)F)NC(=O)CC(c1cccc(Oc3ccccc3)c1)=N2 ; measured EC50: 2.21

EC50 for O=C(O)c1ccc(-c2cccc(-c3nc(-c4ccc(C(F)(F)F)nc4)cc(C(F)(F)F)n3)c2)cc1Cl is 6.76

Briefly, EC50 measured for O=C(O)c1cc(-c2cccc(-c3nc(-c4cc5ccccc5s4)cc(C(F)(F)F)n3)c2)ccc1F : 3.33
